Reported amyloid nucleation score values are given for each entry in this list.
- ASSAY_OVERVIEW: amyloid nucleation score (Sup35N fusion, yeast selection) (log enrichment); library NNK3; higher = more nucleation; inactive = no reads after selection;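 further: zero at mode of non-aggregating sequences after 7 days selection at 30°C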
Reply with just the number.

{"INPUT_SEQUENCE": "LFIFNGCAM", "amyloid nucleation score": 2.31}

Note: attention shifts to another entry.
For record CFFLYCLNFFMRSIERDRDG the listed amyloid nucleation score is 2.24
